Molecular target: human DYRK1A kinase domain (Homo sapiens)
Construct: His-tagged human DYRK1A kinase domain (residues 127–485) was produced in E. coli; His; made in house; host or cells: E. coli
Test: RI-in vitro kinase assay with DYRKtide
Type: biochemical
Settings: IC50, kinase activity of recombinant DYRK1A, DYRKtide substrate; Supplementary Fig. 13d, n=3
endpointName: pIC50
pIC50 field: float, defined as -log10 of concentration (mol/L).

Request body: readout pIC50, system human DYRK1A kinase domain (Homo sapiens), query CCOc1cc(/C=C2\SC(=S)NC2=O)ccc1O . Return the value.
7.59

----------
Target: GST-DYRK1A-TS Y319E (Homo sapiens, UniProt Q13627, Y319E)
Assay: biochemical
endpointName: pIC50
pIC50 field: float, defined as -log10 of concentration (mol/L).

Name the reported pIC50 value associated with the molecule CCOc1cc(/C=C2\SC(=S)NC2=O)ccc1O
6.09

----------
Biological target: human DYRK1A kinase domain (Homo sapiens, UniProt Q13627)
Construct: His-tagged human DYRK1A kinase domain (residues 127–485) was produced in E. coli; His; made in house; host or cells: E. coli
Experiment: RI-in vitro kinase assay with DYRKtide
Assay type: biochemical
Conditions: IC50, in vitro kinase activity of recombinant DYRK1A, DYRKtide substrate; Fig. 1f, n=4
endpointName: IC50 (nM)
Field format: number, assumed nM, no unit text.

Name the reported IC50 value associated with the compound CCOc1cc(/C=C2\SC(=S)NC2=O)ccc1O
60.2

----------
Molecular target: GST-DYRK1A-TS Y319E mutant (Homo sapiens, UniProt Q13627, Y319E)
Assay: biochemical
Conditions: IC50, Ser97 autophosphorylation, ATP 100 μM
endpointName: pIC50
pIC50 field: float, defined as -log10 of concentration (mol/L).

Name the reported pIC50 value associated with the compound CCOc1cc(/C=C2\SC(=S)NC2=O)ccc1O [RD0392]
6.69

----------
Target: human DYRK2 (Homo sapiens, UniProt Q92630)
Construct: His-tagged full-length human DYRK2 recombinant proteins; His; purchased Millipore
Sequence (Q92630 whole entry): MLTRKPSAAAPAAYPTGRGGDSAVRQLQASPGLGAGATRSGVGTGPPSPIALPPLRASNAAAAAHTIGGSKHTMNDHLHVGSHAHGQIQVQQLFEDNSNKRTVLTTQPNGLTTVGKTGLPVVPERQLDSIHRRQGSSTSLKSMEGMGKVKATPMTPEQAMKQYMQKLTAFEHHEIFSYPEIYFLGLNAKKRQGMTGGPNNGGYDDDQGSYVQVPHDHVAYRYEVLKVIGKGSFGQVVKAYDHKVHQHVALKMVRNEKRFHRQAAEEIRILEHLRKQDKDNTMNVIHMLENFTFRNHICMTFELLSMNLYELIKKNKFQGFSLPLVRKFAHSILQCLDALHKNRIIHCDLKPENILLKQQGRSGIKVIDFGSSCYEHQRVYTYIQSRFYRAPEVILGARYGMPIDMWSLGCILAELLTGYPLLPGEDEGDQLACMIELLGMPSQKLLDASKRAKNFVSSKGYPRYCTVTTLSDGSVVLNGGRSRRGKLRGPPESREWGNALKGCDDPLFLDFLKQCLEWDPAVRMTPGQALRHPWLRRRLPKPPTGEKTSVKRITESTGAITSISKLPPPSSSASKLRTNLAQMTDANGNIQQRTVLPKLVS
Assay: RI-in vitro kinase assay with DYRKtide
Type: biochemical
Details: DYRKtide substrate; Fig. 8b, n=4; read-out: IC50, kinase activity of recombinant DYRK2
Reported pIC50 values follow for various compounds
pIC50 field: float, defined as -log10 of concentration (mol/L).

>>> measurement("CCOc1cc(/C=C2\\SC(=S)NC2=O)ccc1O")
7.34

Now take the following compound into account.
Name the reported pIC50 value associated with the compound CCN1/C(=C/C(C)=O)Sc2ccc(O)cc21
7.56

----------
Molecular target: GST-DYRK1A-TS WT (Homo sapiens, UniProt Q13627)
endpointName: pIC50
pIC50 field: float, defined as -log10 of concentration (mol/L).

Request body: readout pIC50, system GST-DYRK1A-TS WT (Homo sapiens, UniProt Q13627), query CCOc1cc(/C=C2\SC(=S)NC2=O)ccc1O [RD0392] . Return the value.
6.49

----------
Biological target: human DYRK1B (Homo sapiens, UniProt Q9Y463)
Construct: GST-tagged full-length human DYRK1B recombinant proteins; GST
Sequence (Q9Y463 whole entry): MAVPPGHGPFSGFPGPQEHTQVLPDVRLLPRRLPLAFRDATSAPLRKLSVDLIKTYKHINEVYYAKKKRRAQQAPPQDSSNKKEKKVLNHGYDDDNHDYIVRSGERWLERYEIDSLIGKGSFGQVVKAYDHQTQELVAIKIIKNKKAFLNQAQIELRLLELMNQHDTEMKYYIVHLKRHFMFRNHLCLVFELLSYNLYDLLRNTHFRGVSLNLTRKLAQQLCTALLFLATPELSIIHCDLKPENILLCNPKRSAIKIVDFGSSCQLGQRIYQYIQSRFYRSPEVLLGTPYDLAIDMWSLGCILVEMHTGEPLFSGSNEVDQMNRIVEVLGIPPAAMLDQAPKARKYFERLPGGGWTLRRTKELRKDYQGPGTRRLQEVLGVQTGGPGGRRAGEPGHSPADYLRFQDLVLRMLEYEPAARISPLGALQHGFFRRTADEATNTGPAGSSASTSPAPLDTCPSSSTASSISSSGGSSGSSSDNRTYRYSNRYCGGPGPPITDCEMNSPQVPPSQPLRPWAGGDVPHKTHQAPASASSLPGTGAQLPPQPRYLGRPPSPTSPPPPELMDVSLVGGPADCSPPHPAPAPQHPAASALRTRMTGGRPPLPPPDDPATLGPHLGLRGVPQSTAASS
Assay: RI-in vitro kinase assay with DYRKtide
endpointName: IC50

Name the reported IC50 value associated with the molecule CCOc1cc(/C=C2\SC(=S)NC2=O)ccc1O
0.0533 µM

----------
Target: human DYRK1A kinase domain (Homo sapiens, UniProt Q13627)
endpointName: Ki (nM)
Field format: number, assumed nM, no unit text.

Request body: readout Ki, system human DYRK1A kinase domain (Homo sapiens, UniProt Q13627), query CCOc1cc(/C=C2\SC(=S)NC2=O)ccc1O [RD0392] . Return the value.
132

----------
Target: GST-DYRK1A-TS Y319E mutant (Homo sapiens, UniProt Q13627, Y319E)
Experiment: biochemical
Details: IC50, tyrosine phosphorylation, ATP 100 μM
endpointName: IC50 (nM)
Field format: number, assumed nM, no unit text.

Name the reported IC50 value associated with the molecule CCOc1cc(/C=C2\SC(=S)NC2=O)ccc1O
514
